# ASSAY_SUMMARY: Hygroscopicity studies (water content after storage at 43 %, 75 % and 93 % relative humidity)
# Format: physicochemical
# MEASUREMENT_SETUP: 2 weeks at 43 % rh; % Equilibrium moisture content; ss = semi solid state of sample; β = solid first changed into liquid and solidified again
Where a name gives a salt, the structure may show the parent alone.
OBSERVATION_TYPE: Hygroscopicity 2 weeks 43 % rh (%)

Here is how some compounds turned out for Hygroscopicity 2 weeks 43 % rh.
Please supply the value of reported Hygroscopicity 2 weeks 43 % rh for the item N[C@@H](CC(=O)N1CCn2c(nnc2C(F)(F)F)C1)Cc1cc(F)c(F)cc1F [O: Sulfate II]
2.59

Give Hygroscopicity 2 weeks 43 % rh for the following compound: N[C@@H](CC(=O)N1CCn2c(nnc2C(F)(F)F)C1)Cc1cc(F)c(F)cc1F [J: Mesylate II]
2.58

Supply reported Hygroscopicity 2 weeks 43 % rh belonging to this compound: N[C@@H](CC(=O)N1CCn2c(nnc2C(F)(F)F)C1)Cc1cc(F)c(F)cc1F [M: Phosphate]
3.69

A: N[C@@H](CC(=O)N1CCn2c(nnc2C(F)(F)F)C1)Cc1cc(F)c(F)cc1F [N: Mesylate II]
B: N[C@@H](CC(=O)N1CCn2c(nnc2C(F)(F)F)C1)Cc1cc(F)c(F)cc1F [Q : HCl II]
C: N[C@@H](CC(=O)N1CCn2c(nnc2C(F)(F)F)C1)Cc1cc(F)c(F)cc1F [K: Mesylate I]
Sequence the entries by Hygroscopicity 2 weeks 43 % rh, beginning with the highest number. The labels, placed in the requested order, form the answer.
A, C, B

====

# ASSAY_SUMMARY: Hygroscopicity studies (water content after storage at 43 %, 75 % and 93 % relative humidity)
# Format: physicochemical
# MEASUREMENT_SETUP: initial sample, before storage
Counter-ions that a name gives are not always drawn.
OBSERVATION_TYPE: Initial water content (%)

I: N[C@@H](CC(=O)N1CCn2c(nnc2C(F)(F)F)C1)Cc1cc(F)c(F)cc1F [N: Mesylate II]
II: N[C@@H](CC(=O)N1CCn2c(nnc2C(F)(F)F)C1)Cc1cc(F)c(F)cc1F [Q : HCl II]
III: N[C@@H](CC(=O)N1CCn2c(nnc2C(F)(F)F)C1)Cc1cc(F)c(F)cc1F [M: Phosphate]
Re-order the entries listed above so their Initial water content values fall from first to last. API: response body holds the labels in the requested order.
III, I, II
(III: 3.59%, I: 2.08%, II: 0.27%)

====

# ASSAY_SUMMARY: Hygroscopicity studies (water content after storage at 43 %, 75 % and 93 % relative humidity)
# Assay type: physicochemical
# MEASUREMENT_SETUP: 2 weeks at 75 % rh; % Equilibrium moisture content; ss = semi solid state of sample; β = solid first changed into liquid and solidified again
Where a name gives a salt, the structure may show the parent alone.
OBSERVATION_TYPE: Hygroscopicity 2 weeks 75 % rh (%)

Completed entries (count: 2):
Please look at this compound and report its Hygroscopicity 2 weeks 75 % rh: N[C@@H](CC(=O)N1CCn2c(nnc2C(F)(F)F)C1)Cc1cc(F)c(F)cc1F [Q : HCl II]
0.44

Assign Hygroscopicity 2 weeks 75 % rh to the following record: N[C@@H](CC(=O)N1CCn2c(nnc2C(F)(F)F)C1)Cc1cc(F)c(F)cc1F [J: Mesylate II]
2.94

a: N[C@@H](CC(=O)N1CCn2c(nnc2C(F)(F)F)C1)Cc1cc(F)c(F)cc1F [M: Phosphate]
b: N[C@@H](CC(=O)N1CCn2c(nnc2C(F)(F)F)C1)Cc1cc(F)c(F)cc1F [O: Sulfate II]
Name the one with the greater Hygroscopicity 2 weeks 75 % rh value, either a or b as given. Answer by stating the label of the chosen item.
b
(b: 7.1%, a: 3.67%)
